Test system: M. tuberculosis H37Rv growth inhibition with meropenem
assay.comment: dose response, H37Rv, with and without meropenem (AID 434987);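 also: growth over 7 days at 37 °C before Alamar Blue read on day 9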
applied.conditions: measured here: IC90 with meropenem
observation.type: IC90

Parameter requested: IC90. Apply to each item below.
1. Cc1nc(/N=C(\N)NC(=O)c2ccccc2)nc2ccccc12
2. Cc1onc(-c2ccccc2)c1C(=O)Nc1ccc(-c2nnc3n2CCCCC3)cc1
3. O=C1OC(/C=C/c2ccc(Cl)cc2Cl)=NC/1=C\c1cccs1
4. CCOc1ccc(-c2nc(-c3ccccc3C)no2)cc1
5. Cc1cc(N2CCN(c3ccccc3)CC2)nc2ccccc12
6. COc1cccc(NC(=O)c2cc(-c3cccnc3)nc3c(Cl)cccc23)c1
7. S=C(NNc1ccc2ccccc2c1)NC1CCCCC1

result:
1. > 25 µM
2. 38.6 µM
3. 33.4 µM
4. > 100 µM
5. > 100 µM
6. > 100 µM
7. 41.3 µM

###

Exercise: state measured pIC50 for each of the compounds provided.
Test system: M. tuberculosis H37Rv growth inhibition with meropenem
assay.comment: dose response, H37Rv, with and without meropenem (AID 434987);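 also: growth over 7 days at 37 °C before Alamar Blue read on day 9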
applied.conditions: M. tuberculosis H37Rv growth inhibition; measured here: IC50 without meropenem
One number for each entry, as −log10 of the molar value.

Clc1ccc(Cn2cc(/C=N/n3cnnc3)c3ccccc32)cc1 : 4.31
c1ccc(-c2ccc(C3=Nn4c(Cn5nnc6ccccc65)nnc4SC3)cc2)cc1 : 4.07
CC(C)=CCC/C(C)=C/C=N/NC(=O)c1ccc([N+](=O)[O-])cc1 : 4.31
Cc1ccc(C(C)C)c(OCc2ccc(C(=O)N/N=C/c3ccc(C(=O)O)cc3)cc2)c1 : 4.36
O=C(c1cccc(C(=O)N2CCN(c3ccc(F)cc3)CC2)c1)N1CCN(c2ccc(F)cc2)CC1 : 4.02

Parameter requested: pIC50. Apply to each item below.
1. CC(O)/C=C/c1ccc2ccccc2n1 (configuration not stated)
2. CCOc1ccc(-c2nnc(-c3ccc(OC)cc3)o2)cc1
3. CC1CCc2nc(NC(=O)C3COc4ccccc4O3)sc2C1 (configuration not stated)
4. CC(C)N1CCc2c(sc(NC(=O)c3cc(-c4cccs4)nc4ccccc34)c2C(N)=O)C1
5. O=C(OCC(=O)N(Cc1ccccc1)C1CCS(=O)(=O)C1)c1cc2c(s1)CCCC2 (configuration not stated)

result:
4.27
4.45
4.29
4.61
4.03

###

System: M. tuberculosis H37Rv growth inhibition with meropenem
assay.comment: dose response, H37Rv, with and without meropenem (AID 434987);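 also: growth over 7 days at 37 °C before Alamar Blue read on day 9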
applied.conditions: M. tuberculosis H37Rv growth inhibition; measured here: IC50 without meropenem
Exercise: state measured IC50 for each of the molecules provided.

Please review the following examples before continuing.
C=C1C(=O)O[C@@H]2[C@H]1[C@@H](OC(=O)/C(C)=C/C)C/C(C)=C\C(=O)/C=C(\C)[C@@H]2O : 18.6 µM
CCc1cc(C(N)=S)ccn1 : 59.3 µM
Cc1nn(C)c(C)c1C1C(C#N)=C(N)OC2=C1C(=O)CCC2 (stereo unspecified) : > 100 µM
Clc1ccc(/C=N/NC2=Nc3cccc4cccc2c34)cc1 : > 100 µM

Parameter requested: IC50. Apply to each item below.
1. O=C(Cc1ccccc1Cl)Nc1nc2ccccc2[nH]1
2. Cc1ccc(SCc2c(-c3ccccc3)nn(C)c2Cl)cc1
3. CCCC(=O)Nc1nc(-c2ccccc2)ns1
4. COC(=O)c1ccc(/C=N\NC(=O)c2ccc(C)cc2Cl)cc1

result:
> 100 µM
58.7 µM
> 100 µM
> 100 µM

Parameter requested: IC50. Apply to each item below.
1. COc1ccc(C(=O)/C=C/c2cccs2)c(OC(=O)c2cccc([N+](=O)[O-])c2)c1
2. NC(=O)CN1C(=O)C(O)(CC(=O)/C=C\C=C\c2ccccc2)c2ccccc21 (stereo unspecified)
3. CCC1(c2ccc(Cl)cc2)NC(=S)N(c2ccc(C)cc2)N1 (stereo unspecified)

result:
1. 54.8 µM
2. > 100 µM
3. > 100 µM

###

Test system: M. tuberculosis H37Rv growth inhibition with meropenem
assay.comment: dose response, H37Rv, with and without meropenem (AID 434987);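 also: growth over 7 days at 37 °C before Alamar Blue read on day 9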
applied.conditions: measured here: IC90 with meropenem
Exercise: state measured IC90 for each of the compounds provided.
One number for each entry, in µM.

Cc1nnnn1/C(=C\c1ccccc1)C(=O)OCC(=O)Nc1ccc(Cl)cc1F : 25.5

Please turn your attention to the following entry.
query: What IC90 value was documented for this compound, C=C(C)C1Cc2c(C)nn(-c3cccc4ccccc34)c2C1 (stereo not given) ?
result: 47.4

###

Exercise: state measured pIC50 for each of the molecules provided.
Tested on: M. tuberculosis H37Rv growth inhibition with meropenem
assay.comment: dose response, H37Rv, with and without meropenem (AID 434987);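 also: growth over 7 days at 37 °C before Alamar Blue read on day 9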
applied.conditions: M. tuberculosis H37Rv growth inhibition; measured here: IC50 without meropenem
One number for each entry, as −log10 of the molar value.

Please review the following examples before continuing.
Cc1nc2sc3c(c2c2nnc(SCC(=O)NCc4ccco4)n12)CCCC3 : 4.09
CC/C(=N\NC(=S)NC(C)C)c1ccc(OC)c(OC)c1 : 4.69
CCc1cc2c(Sc3nc4ccccc4s3)ncnc2s1 : 4.05
CC(=O)OCC(=O)Nc1ccc(C(C)=O)cc1 : 4.02

Parameter requested: pIC50. Apply to each item below.
1. COc1ccc(C(=O)/C=C/c2ccc(O)cc2)c(O)c1CC=C(C)C
2. O=C1OC(c2ccco2)=N/C1=C\c1ccc(-c2cccc(C(F)(F)F)c2)o1

result:
4.19
4.12

###

Test system: M. tuberculosis H37Rv growth inhibition with meropenem
assay.comment: dose response, H37Rv, with and without meropenem (AID 434987);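 also: growth over 7 days at 37 °C before Alamar Blue read on day 9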
applied.conditions: measured here: IC90 with meropenem
observation.type: IC90

Please review the following examples before continuing.
COc1ccc(/C=C/C(=O)N(C(C)C)C(C)C)cc1Br : 96.4 µM
OC1C(O)C(O)C(O)C(O)C1O (stereo not given) : > 100 µM

Parameter requested: IC90. Apply to each item below.
1. CCCC(C)NC(=O)c1ccccc1SC (stereo not given)
2. CCOC(=O)CNC(=O)/C(=C\c1ccc(F)cc1)NC(=O)c1ccccc1
3. O=C(Nc1nc2ccccc2n1CCN1CCCC1)C1CCCCC1
4. Cc1ccc(C2=NN3C(=O)c4ccccc4C3C2)cc1 (stereo not given)

result:
1: > 100 µM; 2: 35.1 µM; 3: 27.5 µM; 4: 35.1 µM

Parameter requested: IC90. Apply to each item below.
1. Cc1ccc(NC(=O)/C=C\C(=O)O)c([N+](=O)[O-])c1
2. CCOC(=O)c1sc(NC(=O)CN2CCCC2)c(C(=O)OCC)c1C

result:
> 100 µM
> 100 µM

Parameter requested: IC90. Apply to each item below.
1. O=C(CSc1nnc(SCc2ccccc2)s1)N/N=C/c1ccc(Cl)cc1Cl
2. COc1cccc(/C=N/NC(=O)NC23CC4CC(CC(C4)C2)C3)c1O
3. CC(=O)c1c(C)[nH]c(C(=O)OCC(=O)Nc2nnc(-c3ccccc3)o2)c1C
4. CCCn1c2ccccc2c2nnc(SCC(=O)OCC)nc21
5. COc1ccc2[nH]c3c(c2c1)CCN=C3C

result:
1. > 100 µM
2. 26.8 µM
3. > 100 µM
4. > 100 µM
5. > 100 µM

Parameter requested: IC90. Apply to each item below.
1. COC(=O)c1ccccc1NC(=O)CSCC(=O)Nc1ccc(F)cc1
2. N#Cc1ccc(C23CC4(C2)[C@H](CN(Cc2cccnc2)[C@@H]4c2ccccc2)C3c2ccccc2)cc1 (stereo not given in full)

result:
1: > 100 µM; 2: > 100 µM

###

Exercise: state measured IC50 for each of the molecules provided.
System: M. tuberculosis H37Rv growth inhibition with meropenem
assay.comment: dose response, H37Rv, with and without meropenem (AID 434987);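 also: growth over 7 days at 37 °C before Alamar Blue read on day 9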
applied.conditions: M. tuberculosis H37Rv growth inhibition; measured here: IC50 without meropenem
Numbers only, in µM.

Please review the following examples before continuing.
Cc1ccccc1OCC(=O)Nc1ccccc1N1CCCCC1 : 96.4
CCNc1nc(CN2CCCCC2)nc2scc(-c3ccccc3)c12 : 47.2
CCOC(=O)C1CCN(c2ccc(C(N)=O)cc2[N+](=O)[O-])CC1 : 55.2
O=C1/C(=C/c2ccncc2)CCc2ccccc21 : 24.3
CN(C)/N=C/c1ccc(/C=N/NC(N)=S)o1 : 90.8
CC1CCN(CCOc2ccc(OCc3ccccc3)cc2)CC1 : 98.4
CCN(CC)c1ccc(C(=O)n2cnc3ccccc32)cc1 : 91.6
Cc1cc2ccccc2n1CCNC(=O)COc1ccccc1 : 44.7
CCn1cc(C(=O)O)c(=O)c2cc(F)c(N/N=C/c3ccccc3)cc21 : 36.5
COc1ccc(N2C(=O)NC(=O)/C(=C\c3ccc([N+](=O)[O-])s3)C2=O)cc1 : 22.9

Parameter requested: IC50. Apply to each item below.
1. C/C(=N/NC(=O)c1cccs1)c1c(C)[nH]n(-c2nc3ccccc3s2)c1=O
2. CCOC(=O)c1sc(NC(=O)CSc2n[nH]c(CC(C)C)n2)nc1C
3. Cc1nnc(SCC2=C(C(=O)O)N3C(=O)C(NC(=O)COc4ccc(F)cc4)C3SC2)s1 (stereo not given)

result:
[1.52, 46.5, 99]
